System: HCI-003.E2 (organoid from an ER-positive breast cancer xenograft)
METHOD_NOTES: CTG-3D luminescence at 96 h relative to day-0 seeding control (ratio to day 0); higher = more growth / less cytotoxicity; PDxO 3D drug screen, 96 h, CTG-3D normalised to day-0 seeding control.
CONDITION_LABEL: 0.00025 µM

- TEST_SMILES: "O=C(c1ccc(F)c(F)c1Nc1ccc(I)cc1F)N1CC(O)([C@@H]2CCCCN2)C1"
  TARGET_SYSTEM: "HCI-003.E2"
  CTG-3D luminescence at 96 h: 2.48
- TEST_SMILES: "CC1(C)CCC(c2ccc(Cl)cc2)=C(CN2CCN(c3ccc(C(=O)NS(=O)(=O)c4ccc(N[C@H](CCN5CCOCC5)CSc5ccccc5)c(S(=O)(=O)C(F)(F)F)c4)cc3)CC2)C1"
  TARGET_SYSTEM: "HCI-003.E2"
  CTG-3D luminescence at 96 h: 2.09
- TEST_SMILES: "COc1cccc2c1C(=O)c1c(O)c3c(c(O)c1C2=O)C[C@@](O)(C(=O)CO)C[C@@H]3O[C@H]1C[C@H](N)[C@H](O)[C@H](C)O1"
  TARGET_SYSTEM: "HCI-003.E2"
  CTG-3D luminescence at 96 h: 2.46
- TEST_SMILES: "CS(=O)(=O)c1ccc(C(=O)Nc2ccc(Cl)c(-c3ccccn3)c2)c(Cl)c1"
  TARGET_SYSTEM: "HCI-003.E2"
  CTG-3D luminescence at 96 h: 2.03
- TEST_SMILES: "Cc1cc(Nc2ncnc3ccc(NC4=NC(C)(C)CO4)cc23)ccc1Oc1ccn2ncnc2c1"
  TARGET_SYSTEM: "HCI-003.E2"
  CTG-3D luminescence at 96 h: 2.41
- TEST_SMILES: "CC(=O)O[C@H]1C(=O)[C@@]2(C)[C@H]([C@H](OC(=O)c3ccccc3)[C@]3(O)C[C@H](OC(=O)[C@H](O)[C@@H](NC(=O)c4ccccc4)c4ccccc4)C(C)=C1C3(C)C)[C@]1(OC(C)=O)CO[C@@H]1C[C@@H]2O"
  TARGET_SYSTEM: "HCI-003.E2"
  CTG-3D luminescence at 96 h: 0.764
- TEST_SMILES: "Cc1cc(Nc2ncc(Cl)c(Nc3ccccc3S(=O)(=O)C(C)C)n2)c(OC(C)C)cc1C1CCNCC1"
  TARGET_SYSTEM: "HCI-003.E2"
  CTG-3D luminescence at 96 h: 2.04
- TEST_SMILES: "CCc1c2c(nc3ccc(O)cc13)-c1cc3c(c(=O)n1C2)COC(=O)[C@]3(O)CC"
  TARGET_SYSTEM: "HCI-003.E2"
  CTG-3D luminescence at 96 h: 2.06
- TEST_SMILES: "O=C(O)C1(C(=O)O)CCC1.[NH2-].[NH2-].[Pt+2]"
  TARGET_SYSTEM: "HCI-003.E2"
  CTG-3D luminescence at 96 h: 2.49
